Values from patent US20140348834A1

Below, each entry is listed with its recorded koff.
biological target: T1, human IL-17A (human, UniProt Q16552 24-155); test: SPR Biacore, captured binder
T1 construct: Purified recombinant; biotinylated in the ELISA; also called HuIL-17A; Hu IL-17A
T1 sequence (Q16552 24-155 limits assumed): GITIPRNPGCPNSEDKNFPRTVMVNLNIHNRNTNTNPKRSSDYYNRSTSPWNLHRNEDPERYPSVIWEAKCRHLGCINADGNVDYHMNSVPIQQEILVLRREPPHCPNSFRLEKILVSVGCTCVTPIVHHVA
Give the value, in units of s⁻¹, as a plain number.

Worked cases, answers included:
IL17-G9-1 (antibody, V domains shown) VH: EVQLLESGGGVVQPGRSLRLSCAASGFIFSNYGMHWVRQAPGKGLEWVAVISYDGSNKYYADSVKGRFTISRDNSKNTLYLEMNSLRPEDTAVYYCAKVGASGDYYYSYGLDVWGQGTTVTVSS VL: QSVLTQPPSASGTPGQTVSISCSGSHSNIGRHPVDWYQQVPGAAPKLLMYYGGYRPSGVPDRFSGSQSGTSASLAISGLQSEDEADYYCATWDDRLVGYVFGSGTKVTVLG; 1.05e-05
IL17-G9-M2 (antibody, V domains shown, converted into IgG) VH: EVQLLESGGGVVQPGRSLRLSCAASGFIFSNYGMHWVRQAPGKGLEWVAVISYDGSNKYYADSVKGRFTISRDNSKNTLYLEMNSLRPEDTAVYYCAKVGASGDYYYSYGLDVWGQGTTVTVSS VL: QSVLTQPPSASGTPGQTVSISCSGHNSNIGYHYVHWYQQVPGAAPKLLIYGDGWRPSGVPDRFSGSQSGTSASLAISGLQSEDEADYYCGTWDDWLGGYVFGTGTKVTVLG; 2.32e-06

Exam item: # get_value(readout='koff', item= IL17-B6-16 (antibody, V domains shown) VH: EVQLVQSGAEVKMPGSSLKISCKASGGSFRGYGISWVRQAPGQGLEWMGGITPFFGWADYAQKFQGRVTITADESTTTAYMELSGLTSDDTAVYYCARDPNEFWNGYYDTHHFDYWGQGTTVTVSS VL: EIVLTQSPDFQSVTPKEKVTITCRASQDIGSALHWYQQKPDQSPKLLIKYASHSVSGVPSRFSGSGSGTDFTLTINGLEAEDAGTYYCHQSDILPHTFGPGTKVDIK )
Marked response: 3e-05

Exam item: What about IL17-G9-M1 (antibody, V domains shown) VH: EVQLLESGGGVVQPGRSLRLSCAASGFIFSNYGMHWVRQAPGKGLEWVAVISYDGGYKYYADSVKGRFTISRDNSKNTLYLEMNSLRPEDTAVYYCAKLSLSGDYYYSYGFDGWGQGTTVTVSS VL: QSVLTQPPSASGTPGQTVSISCSGSKSNIGSHYVHWYQQVPGAAPKLLMYDFGQRPSGVPDRFSGSQSGTSASLAISGLQSEDEADYYCGTWDDWLGGYVFGTGTKVTVLG ?
Marked response: 1e-06

Exam item: What about IL17-G9-4 (antibody, V domains shown, converted into IgG) VH: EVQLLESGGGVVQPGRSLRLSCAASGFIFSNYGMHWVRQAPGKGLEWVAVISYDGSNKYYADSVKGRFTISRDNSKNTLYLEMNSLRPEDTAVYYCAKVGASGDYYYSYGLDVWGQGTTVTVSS VL: QSVLTQPPSASGTPGQTVSISCSGRQSNIGRHYVDWYQQVPGAAPKLLMYYDSIRPSGVPDRFSGSQSGTSASLAISGLQSEDEADYYCATWDDSLGGYVFGSGTKVTVLG ?
Marked response: 1e-06

Exam item: What about IL17-B6-17 (antibody, V domains shown) VH: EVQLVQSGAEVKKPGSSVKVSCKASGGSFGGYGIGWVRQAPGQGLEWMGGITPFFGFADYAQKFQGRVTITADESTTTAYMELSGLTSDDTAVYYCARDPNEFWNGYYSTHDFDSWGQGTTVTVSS VL: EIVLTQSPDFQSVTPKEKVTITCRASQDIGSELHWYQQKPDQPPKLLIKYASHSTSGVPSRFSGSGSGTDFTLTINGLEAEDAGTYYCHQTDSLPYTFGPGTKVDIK ?
Marked response: 3.1e-06

Exam item: What about IL17-B6-15 (antibody, V domains shown) VH: EVQLVQSGAEVKKPGESLKISCKASGGSFSGYGTSWVRQAPGQGLEWMGGITHFFGAVDYAQKFQGRVTITADESTTTAYMELSGLTSDDTAVYYCARDPNEFWNGYYATHDFDYWGQGTTVTVSS VL: EIVLTQSPDFQSVTPKEKVTITCRASQNIGAELHWYQQKPDQSPKLLIKYASHSISGVPSRFSGSGSGTDFTLTINGLEAEDAGTYYCHQTDRLPYSFGPGTKVDIK ?
Marked response: 6.02e-05

Exam item: What about IL17-B6-5 (antibody, V domains shown, also called pJP243 B6.1 #5VH / pJP244 B6.1 #5VK) VH: EVQLVQSGAEVKKPGESVKISCKASGGSFRSYGISWVRQAPGQGLEWMGGITHFFGITDYAQKFQGRVTITADESTTTAYMELSGLTSDDTAVYYCAREPNDFWNGYYDTHDFDSWGQGTTVTVSS VL: EIVLTQSPDFQSVTPKEKVTITCRASQNIGSELHWYQQKPDQSPKLLIKYASHSISGVPSRFSGSGSGTDFTLTINGLEAEDAATYYCHQSDTLPHTFGQGTKVDIK ?
Marked response: 2.29e-05

Exam item: What about IL17-TN-L7-G9 (antibody, V domains shown, Fully human antibody) VH: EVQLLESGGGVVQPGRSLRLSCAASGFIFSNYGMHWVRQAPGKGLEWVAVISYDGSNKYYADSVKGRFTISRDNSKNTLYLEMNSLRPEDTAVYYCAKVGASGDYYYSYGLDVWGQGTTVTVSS VL: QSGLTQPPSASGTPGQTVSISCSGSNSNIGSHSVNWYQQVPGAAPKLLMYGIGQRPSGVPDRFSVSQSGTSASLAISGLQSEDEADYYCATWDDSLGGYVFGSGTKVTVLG ?
Marked response: 8.65e-05

Exam item: What about IL17-TN-K7-B6 (antibody, V domains shown, Fully human antibody) VH: EVQLVQSGAEVKKPGESLKISCKASGGSFRSYGISWVRQAPGQGLEWMGGITPILGTANYAQKFQGRVTITADESTTTAYMELSGLTSDDTAVYYCAREPNDFWNGYYTTHHFDYWGQGTPVTVSS VL: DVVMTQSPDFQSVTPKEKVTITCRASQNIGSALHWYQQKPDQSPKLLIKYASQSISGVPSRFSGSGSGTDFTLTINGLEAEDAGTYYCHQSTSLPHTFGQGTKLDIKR ?
Marked response: 1.47e-05
